Quick reference for GI50 among some molecules
# target_system: Ba/F3-EGFR-WT cells (Homo sapiens, UniProt P00533)
# Sequence (P00533 whole entry, looked up, change not shown): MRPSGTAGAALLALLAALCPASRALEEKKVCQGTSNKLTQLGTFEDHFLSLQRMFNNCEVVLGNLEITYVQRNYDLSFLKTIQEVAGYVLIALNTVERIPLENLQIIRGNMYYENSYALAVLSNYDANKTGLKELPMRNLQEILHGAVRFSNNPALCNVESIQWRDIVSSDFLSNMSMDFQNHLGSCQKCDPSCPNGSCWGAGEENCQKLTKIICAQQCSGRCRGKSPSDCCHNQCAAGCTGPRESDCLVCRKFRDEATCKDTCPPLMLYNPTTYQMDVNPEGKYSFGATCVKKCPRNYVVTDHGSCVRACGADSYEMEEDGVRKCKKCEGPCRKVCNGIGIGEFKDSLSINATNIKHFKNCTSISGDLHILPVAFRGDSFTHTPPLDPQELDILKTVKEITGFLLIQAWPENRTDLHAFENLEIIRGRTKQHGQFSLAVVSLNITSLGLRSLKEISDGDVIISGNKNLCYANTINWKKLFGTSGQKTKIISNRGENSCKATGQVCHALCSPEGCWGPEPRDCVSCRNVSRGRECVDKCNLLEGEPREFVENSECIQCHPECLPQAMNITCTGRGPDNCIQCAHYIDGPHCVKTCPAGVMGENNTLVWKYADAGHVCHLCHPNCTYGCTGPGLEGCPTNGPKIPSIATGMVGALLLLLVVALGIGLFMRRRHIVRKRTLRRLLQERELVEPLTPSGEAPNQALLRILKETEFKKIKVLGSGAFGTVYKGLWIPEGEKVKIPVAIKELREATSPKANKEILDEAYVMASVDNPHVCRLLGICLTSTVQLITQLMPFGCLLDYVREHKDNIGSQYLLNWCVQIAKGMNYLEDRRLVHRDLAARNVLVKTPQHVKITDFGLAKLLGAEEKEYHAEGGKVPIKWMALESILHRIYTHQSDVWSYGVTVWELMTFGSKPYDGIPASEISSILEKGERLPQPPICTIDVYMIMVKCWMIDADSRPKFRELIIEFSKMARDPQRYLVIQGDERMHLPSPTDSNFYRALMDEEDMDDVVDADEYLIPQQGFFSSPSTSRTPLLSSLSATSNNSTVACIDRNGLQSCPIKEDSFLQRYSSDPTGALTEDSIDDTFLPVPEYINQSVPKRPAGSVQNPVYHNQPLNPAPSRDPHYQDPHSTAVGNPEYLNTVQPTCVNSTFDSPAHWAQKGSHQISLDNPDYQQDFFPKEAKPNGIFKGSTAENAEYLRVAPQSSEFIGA
# assay_text: Ba/F3 cell survival assay, wild type EGFR
# Format: cell-based
# measurement_context: Cell Titer-Glo, 48 h, with 10 ng/mL EGF; Table 4; read-out: BA/F3 (wild type) IC50

{"molecule": "COc1c(Cl)cccc1Nc1c(-c2ccncc2OCC2COC(C)(C)CO2)[nH]c2c1C(=O)NCC2C (single isomer, unassigned) [Example 96]", "GI50 / µM": 3.43}
{"molecule": "COc1c(Cl)cccc1Nc1c(-c2ccncc2OCC2COC(C)(C)CO2)[nH]c2c1C(=O)N[C@H](C)C2 (mixture of isomers) [Example 77]", "GI50 / µM": 3.2}
{"molecule": "COc1c(Cl)cccc1Nc1c(-c2ccncc2OCCC(C)OC)[nH]c2c1C(=O)N[C@H](C)C2 (single isomer, unassigned) [Example 121]", "GI50 / µM": 0.267}

* * *

# target_system: Ba/F3-EGFR-WT cells (Homo sapiens)
# assay_text: Ba/F3 cell survival assay, wild type EGFR
# Type: cell-based
# measurement_context: Cell Titer-Glo, 48 h, with 10 ng/mL EGF; Table 4; read-out: BA/F3 (wild type) IC50
Please use fulfilled for GI50 under 600 nM and not fulfilled for everything else, ties included.

{"compound": "COc1c(Cl)cccc1Nc1c(-c2ccncc2OC[C@@H]2CCO2)[nH]c2c1C(=O)N[C@H](C)C2 [Example 6]", "class_name": "not fulfilled"}
{"compound": "COc1c(Cl)cccc1Nc1c(-c2ccncc2OC[C@@H]2CCO2)[nH]c2c1C(=O)N[C@@H](C)C2 [Example 7]", "class_name": "fulfilled"}
{"compound": "COc1c(Cl)cccc1Nc1c(-c2ccncc2OC[C@@H]2CN(C)CCO2)[nH]c2c1C(=O)NC1(CC1)C2 [Example 112]", "class_name": "fulfilled"}
{"compound": "COc1c(Cl)cccc1Nc1c(-c2ccncc2OCC(C)OC)[nH]c2c1C(=O)N[C@H](C)C2 (mixture of isomers) [Example 80]", "class_name": "not fulfilled"}
{"compound": "Cc1c(Cl)cccc1Nc1c(-c2ccncc2OC[C@H]2CN(C)CCO2)[nH]c2c1C(=O)N[C@H](C)C2 [Example 106]", "class_name": "not fulfilled"}
{"compound": "COc1c(Cl)cccc1Nc1c(-c2ccncc2OC[C@@H]2CCCO2)[nH]c2c1C(=O)NCC2CC=C(F)F (single isomer, unassigned) [Example 100]", "class_name": "not fulfilled"}
{"compound": "COc1c(Cl)cccc1Nc1c(-c2ccncc2OC[C@@H]2CCCO2)[nH]c2c1C(=O)NC(C)C2 (mixture of isomers) [Example 3]", "class_name": "fulfilled"}

* * *

# target_system: Ba/F3-EGFR-H773_V774insNPH cells (Homo sapiens, UniProt P00533, DUP771-773, cells depend on it)
# Sequence (P00533 with tags, fused parts or gaps DUP771-773): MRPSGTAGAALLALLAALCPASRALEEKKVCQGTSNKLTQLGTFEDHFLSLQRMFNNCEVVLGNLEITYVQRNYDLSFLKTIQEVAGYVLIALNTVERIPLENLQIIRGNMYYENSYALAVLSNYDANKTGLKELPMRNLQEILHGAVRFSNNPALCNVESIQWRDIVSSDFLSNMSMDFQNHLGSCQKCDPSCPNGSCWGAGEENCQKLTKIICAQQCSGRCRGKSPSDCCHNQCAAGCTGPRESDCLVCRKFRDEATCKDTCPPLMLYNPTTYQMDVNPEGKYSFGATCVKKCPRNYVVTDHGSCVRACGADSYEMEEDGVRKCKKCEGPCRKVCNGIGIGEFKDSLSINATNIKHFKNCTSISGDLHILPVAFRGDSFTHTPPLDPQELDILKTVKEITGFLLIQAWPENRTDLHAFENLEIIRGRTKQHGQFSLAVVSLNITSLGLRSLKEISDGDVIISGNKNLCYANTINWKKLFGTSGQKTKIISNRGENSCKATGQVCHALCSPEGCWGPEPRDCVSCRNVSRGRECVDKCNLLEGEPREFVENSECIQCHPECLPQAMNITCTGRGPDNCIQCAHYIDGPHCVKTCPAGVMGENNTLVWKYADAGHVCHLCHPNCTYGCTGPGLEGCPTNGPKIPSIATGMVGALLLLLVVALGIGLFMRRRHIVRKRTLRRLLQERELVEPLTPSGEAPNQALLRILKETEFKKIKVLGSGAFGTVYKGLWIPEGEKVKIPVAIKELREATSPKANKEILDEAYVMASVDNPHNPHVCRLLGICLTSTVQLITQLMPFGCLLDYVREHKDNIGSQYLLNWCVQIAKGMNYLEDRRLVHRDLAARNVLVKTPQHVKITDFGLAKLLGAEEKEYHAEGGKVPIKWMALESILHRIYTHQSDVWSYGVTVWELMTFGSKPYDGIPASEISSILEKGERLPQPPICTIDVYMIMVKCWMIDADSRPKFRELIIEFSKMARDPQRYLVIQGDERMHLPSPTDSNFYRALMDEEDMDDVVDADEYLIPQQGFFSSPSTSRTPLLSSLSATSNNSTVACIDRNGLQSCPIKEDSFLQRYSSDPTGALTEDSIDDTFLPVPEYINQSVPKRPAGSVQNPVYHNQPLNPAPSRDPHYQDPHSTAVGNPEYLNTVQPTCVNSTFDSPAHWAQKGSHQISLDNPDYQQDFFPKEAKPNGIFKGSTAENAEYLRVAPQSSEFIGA
# assay_text: Ba/F3 cell survival assay, EGFR H773_V774insNPH
# Type: cell-based
# measurement_context: EGFR Exon20 insertion mutations; Table 6; read-out: BA/F3 (EGFR H773_774insNPH) IC50

{"compound": "COCC(C)Oc1cnccc1-c1[nH]c2c(c1Nc1cccc(Cl)c1OC)C(=O)N[C@@H]1CCC[C@H]21 (single isomer, unassigned) [Example 51]", "GI50 [nM]": 30.8}
{"compound": "Cc1c(Cl)cccc1Nc1c(-c2ccncc2OCC2COCCO2)[nH]c2c1C(=O)NCC2C (single isomer, unassigned) [Example 67]", "GI50 [nM]": 117}
{"compound": "COc1c(Cl)cccc1Nc1c(-c2ccncc2OCCC2CCCCO2)[nH]c2c1C(=O)N[C@H](C)C2 (single isomer, unassigned) [Example 87]", "GI50 [nM]": 138}
{"compound": "COc1c(Cl)cccc1Nc1c(-c2ccncc2OCCC(C)OC)[nH]c2c1C(=O)N[C@H](C)C2 (single isomer, unassigned) [Example 121]", "GI50 [nM]": 49.2}
{"compound": "COc1c(Cl)cccc1Nc1c(-c2ccncc2OC[C@@H]2CCCO2)[nH]c2c1C(=O)NC1(CC1)C2 [Example 113]", "GI50 [nM]": 116}
{"compound": "COc1c(Cl)cccc1Nc1c(-c2ccncc2OCC2COCCO2)[nH]c2c1C(=O)NCC2C (single isomer, unassigned) [Example 34]", "GI50 [nM]": 165}

* * *

# target_system: EGFR with insertion SVD between D770 and N771 (mutEGFR D770_N771insSVD) (Homo sapiens, UniProt P00533, DUP768-770)
# Construct: amino acids R669 to A1210; made in house; host or cells: Sf9 insect cells (baculovirus)
# Sequence (P00533 other isoform, or with tags, fused parts or gaps DUP768-770): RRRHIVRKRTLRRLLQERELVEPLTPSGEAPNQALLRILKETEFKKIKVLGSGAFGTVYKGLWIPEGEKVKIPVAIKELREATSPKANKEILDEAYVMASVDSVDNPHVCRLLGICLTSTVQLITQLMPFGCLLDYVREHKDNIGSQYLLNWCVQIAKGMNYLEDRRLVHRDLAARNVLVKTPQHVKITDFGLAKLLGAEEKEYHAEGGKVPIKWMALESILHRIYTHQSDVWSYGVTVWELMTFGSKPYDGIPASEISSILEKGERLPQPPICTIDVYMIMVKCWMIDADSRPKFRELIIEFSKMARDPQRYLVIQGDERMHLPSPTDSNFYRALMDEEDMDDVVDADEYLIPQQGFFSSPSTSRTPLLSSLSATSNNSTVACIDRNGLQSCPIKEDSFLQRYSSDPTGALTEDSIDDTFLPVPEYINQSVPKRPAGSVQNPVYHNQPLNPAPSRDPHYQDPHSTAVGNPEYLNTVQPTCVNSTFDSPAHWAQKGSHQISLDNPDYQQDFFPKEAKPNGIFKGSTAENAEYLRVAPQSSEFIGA
# assay_text: Exon20-Mutant-EGFR(D770_N771insSVD) kinase assay (TR-FRET)
# Format: biochemical
# measurement_context: 2 mM ATP, Table 2
Label condition met when mutEGFR (D770_N771insSVD) kinase assay IC50 is at or above 0.3 nM; otherwise label condition not met.

{"molecule": "COc1c(Cl)cccc1Nc1c(-c2ccncc2OCC2COC(C)(C)CO2)[nH]c2c1C(=O)NC1(CC1)C2 (single isomer, unassigned) [Example 133]", "class_name": "condition met"}
{"molecule": "C[C@@H]1Cc2[nH]c(-c3ccncc3OCC3COCCO3)c(Nc3cccc(F)c3CC(F)F)c2C(=O)N1 (stereo partly drawn)", "class_name": "condition not met"}
{"molecule": "COc1c(Cl)cccc1Nc1c(-c2ccncc2OCC2COC(C)(C)CO2)[nH]c2c1C(=O)N[C@H](C)C2 (single isomer, unassigned) [Example 79]", "class_name": "condition met"}
{"molecule": "COCC(C)Oc1cnccc1-c1[nH]c2c(c1Nc1cccc(Cl)c1OC)C(=O)N[C@@H]1CCC[C@H]21 (single isomer, unassigned) [Example 50]", "class_name": "condition met"}
{"molecule": "COc1c(Cl)cccc1Nc1c(-c2ccncc2OCC2CCCCO2)[nH]c2c1C(=O)NCC2C (stereo not drawn) [Example 44]", "class_name": "condition not met"}
{"molecule": "COc1c(Cl)cccc1Nc1c(-c2ccncc2OCC2CCCCN2C)[nH]c2c1C(=O)N[C@H](C)C2 (single isomer, unassigned) [Example 84]", "class_name": "condition met"}

* * *

# target_system: Ba/F3-EGFR-WT cells (Homo sapiens)
# assay_text: Ba/F3 cell survival assay, wild type EGFR
# Type: cell-based
# measurement_context: Cell Titer-Glo, 48 h, with 10 ng/mL EGF; Table 4; read-out: BA/F3 (wild type) IC50
Quick reference for GI50 among some compounds

{"compound": "COCC(C)Oc1cnccc1-c1[nH]c2c(c1Nc1cccc(Cl)c1C)C(=O)N[C@H](C)C2 (stereo partly drawn)", "target_system": "Ba/F3-EGFR-WT cells (Homo sapiens)", "unit_tag": "nM", "GI50": 884}
{"compound": "COc1c(Cl)cccc1Nc1c(-c2ccncc2OCC2COCCO2)[nH]c2c1C(=O)N[C@H](C)C2 (single isomer, unassigned) [Example 26]", "target_system": "Ba/F3-EGFR-WT cells (Homo sapiens)", "unit_tag": "nM", "GI50": 587}
{"compound": "COc1c(Cl)cccc1Nc1c(-c2ccncc2OCC2(C)CCO2)[nH]c2c1C(=O)NCC2CCO (stereo not drawn) [Example 19]", "target_system": "Ba/F3-EGFR-WT cells (Homo sapiens)", "unit_tag": "nM", "GI50": 684}
{"compound": "COc1c(Cl)cccc1Nc1c(-c2ccncc2OCC2COC(C)(C)CO2)[nH]c2c1C(=O)NCC2C (single isomer, unassigned) [Example 95]", "target_system": "Ba/F3-EGFR-WT cells (Homo sapiens)", "unit_tag": "nM", "GI50": 415}
{"compound": "COc1c(Cl)cccc1Nc1c(-c2ccncc2OCC2CCCCO2)[nH]c2c1C(=O)N[C@H](C)C2 (single isomer, unassigned) [Example 29]", "target_system": "Ba/F3-EGFR-WT cells (Homo sapiens)", "unit_tag": "nM", "GI50": 288}
{"compound": "COc1c(Cl)cccc1Nc1c(-c2ccncc2OCC2CCCCO2)[nH]c2c1C(=O)N[C@H](C)C2 (single isomer, unassigned) [Example 28]", "target_system": "Ba/F3-EGFR-WT cells (Homo sapiens)", "unit_tag": "nM", "GI50": 189}

* * *

Quick reference for pIC50 among some compounds
# target_system: Bub1 (Homo sapiens)
# Construct: catalytic domain of human Bub1 (amino acids 704-1085); His6 (N); made in house; host or cells: insect cells (Hi5)
# Sequence (O43683 704-1085): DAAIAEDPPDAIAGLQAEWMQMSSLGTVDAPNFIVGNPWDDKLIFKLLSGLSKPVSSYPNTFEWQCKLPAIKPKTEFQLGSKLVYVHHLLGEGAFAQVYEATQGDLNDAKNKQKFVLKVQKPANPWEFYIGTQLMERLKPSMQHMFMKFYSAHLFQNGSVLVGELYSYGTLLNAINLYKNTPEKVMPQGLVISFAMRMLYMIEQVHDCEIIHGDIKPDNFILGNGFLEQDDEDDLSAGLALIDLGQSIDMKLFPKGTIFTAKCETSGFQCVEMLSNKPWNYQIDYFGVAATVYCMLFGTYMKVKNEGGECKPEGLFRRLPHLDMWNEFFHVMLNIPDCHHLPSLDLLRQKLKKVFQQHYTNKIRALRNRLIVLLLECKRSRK
# assay_text: Bub1 high ATP kinase assay (TR-FRET)
# Type: biochemical
# measurement_context: Bub1 high ATP (2 mM) IC50, TR-FRET, 2 mM ATP; Table 3
# Excerpt: Bub1 high ATP Kinase Assay Bub1-inhibitory activity of compounds of the present invention at a high ATP concentration was quantified employing the Bub1 TR-FRET high ATP kinase assay as described in the following paragraphs. N-terminally His6-tagged recombinant catalytic domain of human Bub1 (amino acids 704-1085), expressed in insect cells (Hi5) and purified by Ni-NTA affinity chromatography and subsequent size exclusion chromatography, was used as enzyme. […]
pIC50: −log10 of the molar value.

{"compound": "COc1c(Cl)cccc1Nc1c(-c2ccncc2OC[C@@H]2CCCO2)[nH]c2c1C(=O)N[C@H]1CCC[C@@H]21", "inequality_operator": "=", "pIC50": 6.55}
{"compound": "COc1c(Cl)cccc1Nc1c(-c2ccncc2OC[C@@H]2CCO2)[nH]c2c1C(=O)N[C@H](C)C2", "inequality_operator": "=", "pIC50": 4.99}
{"compound": "COc1c(Cl)cccc1Nc1c(-c2ccncc2OC[C@@H]2CCCO2)[nH]c2c1C(=O)NC(C(F)(F)F)C2 (single isomer, unassigned) [Example 39]", "inequality_operator": "<", "pIC50": 4.70}
{"compound": "COc1c(F)cccc1Nc1c(-c2ccncc2OC[C@@H]2CCCO2)[nH]c2c1C(=O)NC(C)C2 (single isomer, unassigned) [Example 9]", "inequality_operator": "=", "pIC50": 5.08}
{"compound": "COc1c(Cl)cccc1Nc1c(-c2ccncc2OCC2COCCO2)[nH]c2c1C(=O)NC1(CCC1)C2 (single isomer, unassigned) [Example 124]", "inequality_operator": "=", "pIC50": 6.32}
{"compound": "COc1c(Cl)cccc1Nc1c(-c2ccncc2OC[C@@H]2CCO2)[nH]c2c1C(=O)N[C@@H](C)C2", "inequality_operator": "<", "pIC50": 4.70}
